# Assay overview: Rat pharmacokinetics, oral or intravenous cassette dosing
# Type: in vivo, rats (strain Wistar RjHAN)
# Condition set: Wistar RjHAN, rat, plasma; male rats, po 5 mg/kg
Readout type: CL/F (mL/min/kg)
Numbers only; they are read as mL/min/kg.

Fill in: CL/F of [2H]C([2H])(CC(C)(C)O)n1ncc(-c2onc(-c3c(F)cccc3Cl)c2-c2ncccn2)c1C(F)(F)F is ___
343

----------
# Measured target: RORγt (Homo sapiens, UniProt P51449)
# Sequence (P51449 269-508 limits assumed): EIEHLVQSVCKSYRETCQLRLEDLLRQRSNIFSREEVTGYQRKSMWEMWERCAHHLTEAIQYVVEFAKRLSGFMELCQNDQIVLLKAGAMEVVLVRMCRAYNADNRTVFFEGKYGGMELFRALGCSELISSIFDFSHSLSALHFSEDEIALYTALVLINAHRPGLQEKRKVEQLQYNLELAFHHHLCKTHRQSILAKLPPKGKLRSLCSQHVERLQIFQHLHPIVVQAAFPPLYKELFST
# Assay overview: Indigo Biosciences Human RAR-related Orphan Receptor, Gamma Reporter Assay (in vitro inhibition of RORγt)
# Condition set: RORγt reporter cells, luciferase readout, 22-24 h incubation; read-out: IC50 range
Readout type: IC50

>>> df
                                chem_smiles  readout_type  observed_measurement
0  [2H]c1nc(-c2c(-c3c(F)cccc3Cl)noc2-c2cnn(-c3cccc(Cl)c3)c2C(F)(F)F)nc([2H])c1[2H]          IC50          10 to 100 nM
1  [2H]C([2H])(CC(C)(C)O)n1ncc(-c2onc(-c3c(F)cccc3Cl)c2-c2ncccn2)c1C(F)F          IC50          10 to 100 nM

Using the record for [2H]C([2H])(OC1CC1)c1c(-c2c(F)cc(F)cc2Cl)noc1-c1cnn(-c2cccc(Cl)c2)c1C(F)(F)F , report its IC50.
100 to 1000 nM

What does the data say about its IC50? Entry: [2H][C@]1(n2ncc(-c3onc(-c4ccccc4Cl)c3-c3ncccn3)c2C(F)(F)F)C[C@](C)(O)C1
100 to 1000 nM
